assay: Stability in human plasma (PS) assay; assay type: in vitro ADME; conditions: 37° C., 120 minutes, read-out: t1/2 (min) hPS
QUANTITY MEASURED: half-life at 1 μM

Q) Given the compound COc1cccc2ccc(N3CCC(c4nc(-c5ccc(OC(F)(F)F)cc5)no4)CC3)nc12 , what is its reported half-life at 1 μM?
A) > 240 min

====

experiment: Metabolic stability assay in liver microsomes; assay type: in vitro ADME; details: human, pH 7.4, 37° C., 60 minutes
QUANTITY MEASURED: microsomal CLint at 1 μM
Write the figure, then the unit, nothing else.

Q) Given the molecule COc1cccc2ccc(N3CCC(c4nc(-c5ccc(OC(F)(F)F)cc5)no4)CC3)nc12 , what is its reported microsomal CLint at 1 μM?
A) 9.2 µL/min/mg

====

system: H37Rv M. tuberculosis (strain ATCC 25618); experiment: Mycobacterium tuberculosis susceptibility assay REMA (resazurin microtiter assay); assay type: cell-based; details: Mycobacterium tuberculosis, 144 h, read-out: REMA MIC
Where a name gives a salt, the structure may show the parent alone.
Exercise: for every item that follows, state its recorded MIC.

Q) Given the compound COc1cccc2ccc(N3CCC(c4nc(-c5ccc(OC(F)(F)F)cc5)no4)CC3)nc12 , what is its reported MIC?
A) 7.8 to 15.6 µM

Q) Another compound to look at: COc1cccc2ccc(N3CCC(c4nc(-c5ccc(NCCO)nc5)no4)CC3)nc12 [Compound 35, hydrochloride]
A) 15.6 to 31.5 µM

Q) Another compound to look at: COc1cccc2ccc(N3CCC(c4nc(-c5cccnc5)no4)CC3)nc12 [Compound 10, hydrochloride]
A) 15.6 to 31.5 µM

====

Assay: pKa determination by potentiometric titration
Format: physicochemical
Conditions: acidified MeOH-water (1:4) solution of NaCl, 25° C.
Method: In an embodiment, pKa determination assay was carried out. The tendency of a compound to donate a proton is measured as its acid ionization constant (dissociation constant), or Ka. […] The recorded pH of the solution as a function of NaOH volume used during the titration were used to construct the titration curve. […] Buffering capacity was calculated in each point of titration curve as the ratio of the NaOH flow (constant) to the pH rise velocity. […]
QUANTITY MEASURED: pKa
Could you respond with only the numeric value?

Q) Given the compound COc1cccc2ccc(N3CCC(c4nc(-c5ccc(OC(F)(F)F)cc5)no4)CC3)nc12 , what is its reported pKa?
A) 3.9

====

tested on: HepG2 cell line; test: In vitro cytotoxicity assay (MTS tetrazolium reduction); type: cell-based; conditions: Homo sapiens, HepG2, 48 h
pIC50: −log10 of the molar value. Structures can show the parent of a compound that is named as a salt.
Exercise: for every item that follows, state its recorded pIC50.

Q) Given the compound Clc1cccc2ccc(N3CCC(c4nc(-c5cccnc5)no4)CC3)nc12 [Compound 18, hydrochloride] , what is its reported pIC50?
A) 4.00 to 4.30

Q) Another compound to look at: COc1cc(OC)cc(-c2noc(C3CCN(c4ccc5cccc(OC)c5n4)CC3)n2)c1 [Compound 6]
A) < 4.00

Q) Another compound to look at: COc1cccc2ccc(N3CCC(c4nc(-c5ccc(N6CCCC6)nc5)no4)CC3)nc12 [Compound 50, hydrochloride]
A) < 4.00

Q) Another compound to look at: COc1cccc2ccc(N3CCC(c4nc(-c5ccc(Cl)nc5)no4)CC3)nc12 [Compound 31, hydrochloride]
A) 4.30 to 4.70

Q) Another compound to look at: COc1cccc2ccc(N3CCC(c4nc(-c5ccc(N6CCCCC6)nc5)no4)CC3)nc12 [Compound 33]
A) < 4.00

Q) Another compound to look at: COc1cccc2ccc(N3CCC(c4nc(-c5ccc(NCCO)nc5)no4)CC3)nc12 [Compound 35, hydrochloride]
A) < 4.00

Q) Another compound to look at: COc1cccc2ccc(N3CCC(c4nc(-c5ccc(C(F)(F)F)cc5)no4)CC3)nc12 [Compound 5, hydrochloride]
A) 4.00 to 4.30

These entries and their values trace back to patent US20240279217A1.
